target: LasR (Pseudomonas aeruginosa); conditions: measured vs 25 nM OdDHL; read-out: IC50 (95% CL)
Sequence (P25084 whole entry): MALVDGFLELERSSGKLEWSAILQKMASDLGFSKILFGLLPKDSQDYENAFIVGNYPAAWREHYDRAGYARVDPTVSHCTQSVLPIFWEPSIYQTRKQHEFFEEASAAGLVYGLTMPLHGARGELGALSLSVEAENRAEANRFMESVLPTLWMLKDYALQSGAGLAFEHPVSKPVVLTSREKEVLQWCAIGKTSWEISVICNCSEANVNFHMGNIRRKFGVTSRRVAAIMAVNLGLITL
pIC50: −log10 of the molar value.

>  <smiles>
CCCCCCCCCC(=O)CC(=O)Nc1ccccc1

>  <pIC50>
5.70

$$$$
